B1: KIAA1161 (parent)
chain: FMPAMQFSIPPWRYDAEVVAIAQK

# Variants of: B1
# measurement_notes: protein stability index of a GFP-peptide fusion (GPS, HEK-293T) (PSI 1-6); higher = more stable;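 further: lentivirally expressed fusions sorted by FACS into six bins by GFP to DsRed ratio, PSI derived from sequencing read proportions per bin multiplied by bin number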
# condition_parameters: c terminus: a fixed tail appended
Label MET when protein stability index is at or above 2; anything below gets NOT MET.

Lookup: I'd appreciate it if you could say whether `V19Q` has protein stability index at least equal to 2.
Found: MET

Lookup: Check this variant for protein stability index at or above 2: `P11E`
Found: NOT MET

Lookup: Can `P10I` be said to have protein stability index at or above 2?
Found: MET

Lookup: Is protein stability index for `F7S` at or above 2?
Found: NOT MET

Lookup: Is the recorded value of protein stability index equal to or greater than 2 for this variant? `E17S`
Found: NOT MET

Lookup: Test whether the variant `P11D` records protein stability index of 2 or higher.
Found: MET

Lookup: Identify whether the reported protein stability index of the following variant is 2 or greater: `I21H`
Found: MET

Lookup: In plain terms: is recorded protein stability index at least 2 for `F7N` ?
Found: MET

Lookup: Assess whether reported protein stability index for `A16T` sits at 2 or higher.
Found: MET

Lookup: Evaluate `P10K` : protein stability index at minimum 2?
Found: MET

Lookup: API: above_or_equal(metric=protein stability index, cutoff=2) for item `V19M`
Found: NOT MET

Lookup: Assess whether reported protein stability index for `E17C` sits at 2 or higher.
Found: NOT MET

Lookup: Is protein stability index for `P11F` at or above 2?
Found: MET

Lookup: Quick check: does `W12D` have protein stability index greater than or equal to 2?
Found: MET

Lookup: Answer whether protein stability index of `A22T` is greater than or equal to 2.
Found: MET

Lookup: I'd appreciate it if you could say whether `M5L` has protein stability index at least equal to 2.
Found: MET

Lookup: API: above_or_equal(metric=protein stability index, cutoff=2) for item `A16S`
Found: NOT MET

Lookup: I'd appreciate it if you could say whether `P3F` has protein stability index at least equal to 2.
Found: NOT MET

Lookup: Is the recorded value of protein stability index equal to or greater than 2 for this variant? `E17I`
Found: NOT MET

Lookup: Hello, I need to know if `Q6T` has measured protein stability index not below 2. Thanks!
Found: NOT MET
